system: A204; experiment: relative viability vs DMSO control (72 h) (fraction); higher = more viable cells; details: 0.01372 µM
TEST READOUT: relative viability
Returns: the value as a bare number; no unit string appended.

Here are 9 compounds together with their reported answers.
SMILES INPUT	relative viability
C[C@]12O[C@H](C[C@]1(O)CO)n1c3ccccc3c3c4c(c5c6ccccc6n2c5c31)CNC4=O	0.967
Cn1ncnc1[C@H]1c2n[nH]c(=O)c3cc(F)cc(c23)N[C@@H]1c1ccc(F)cc1	0.906
CC(C)Oc1ccc(-c2nn([C@@H](C)c3oc4ccc(F)cc4c(=O)c3-c3cccc(F)c3)c3ncnc(N)c23)cc1F	1.08
O=c1sn(-c2cccc3ccccc23)c(=O)n1Cc1ccccc1	1.14
N#CCNC(=O)c1ccc(-c2ccnc(Nc3ccc(N4CCOCC4)cc3)n2)cc1	1.04
CCN(CC)CCNC(=O)c1c(C)[nH]c(/C=C2\C(=O)Nc3ccc(F)cc32)c1C	0.795
CC1(C)CC=C(c2nc(C3CC(C)(C)OC(C)(C)C3)ccc2NC(=O)c2nc(C#N)c[nH]2)CC1	1.08
Clc1ccc(Nc2nnc(Cc3ccncc3)c3ccccc23)cc1	1.04
COc1cc(Nc2ncc(F)c(Nc3ccc4c(n3)N(COP(=O)(O)O)C(=O)C(C)(C)O4)n2)cc(OC)c1OC	1.07

Indicate the recorded relative viability value for this compound: "CC(C)(O)CNc1nc(Nc2ccnc(C(F)(F)F)c2)nc(-c2cccc(C(F)(F)F)n2)n1"
1.1

* * *

system: SK-ES-1; assay: relative viability vs DMSO control (72 h) (fraction); higher = more viable cells; details: 3.333 µM
// reported relative viability per item
Returns: the value as a bare number; no unit string appended.

Here are 2 compounds together with their reported answers.
COMPOUND	relative viability
CC1(COc2ccc3c(c2)ncn3-c2ccc3cccc(N4CCC(N)CC4)c3n2)COC1 [Crenolanib]	0.188
Cn1ncnc1[C@H]1c2n[nH]c(=O)c3cc(F)cc(c23)N[C@@H]1c1ccc(F)cc1 [Talazoparib]	0.0309

Indicate the recorded relative viability value for this compound: CC#CC(=O)N1CCC[C@H]1c1nc(-c2ccc(C(=O)Nc3ccccn3)cc2)c2c(N)nccn12 [Acalabrutinib]
1.02

Indicate the recorded relative viability value for this compound: COC(=O)N[C@@H](C)CNc1nccc(-c2cn(C(C)C)nc2-c2cc(Cl)cc(NS(C)(=O)=O)c2F)n1 [Encorafenib]
0.308

Indicate the recorded relative viability value for this compound: CCC(=O)N1CC[C@H](Nc2ncnc3c2CN(c2cnc(OC)c(C(F)(F)F)c2)CC3)C1 [Leniolisib]
0.898

* * *

// reported relative viability per item
tested on: SW872; test: relative viability vs DMSO control (72 h) (fraction); higher = more viable cells; conditions: 0.00051 µM
Returns: the value as a bare number; no unit string appended.

SMILES INPUT	MEAS VALUE
O=C(Nc1nc2cccc(-c3ccc(CN4CCS(=O)(=O)CC4)cc3)n2n1)C1CC1	1.02
CCN(CC)CCNC(=O)c1c(C)[nH]c(/C=C2\C(=O)Nc3ccc(F)cc32)c1C	1.05
COc1cc(OC)c(/C=C/S(=O)(=O)Cc2ccc(OC)c(NCC(=O)O)c2)c(OC)c1	1.05
N#CC1(c2ccc(NC(=O)c3cccnc3NCc3ccncc3)cc2)CCCC1	1.07
CNC(=O)c1nnc(NC(=O)C2CC2)cc1Nc1cccc(-c2ncn(C)n2)c1OC	1
O=C(Nc1ccc(OC(F)(F)Cl)cc1)c1cnc(N2CC[C@@H](O)C2)c(-c2cc[nH]n2)c1	0.94

Give the observed relative viability of "Cn1ncnc1[C@H]1c2n[nH]c(=O)c3cc(F)cc(c23)N[C@@H]1c1ccc(F)cc1" for SW872.
1.04

Give the observed relative viability of "CNC(=O)c1ccccc1Sc1ccc2c(/C=C/c3ccccn3)n[nH]c2c1" for SW872.
1.04

* * *

test system: SW684; assay: relative viability vs DMSO control (72 h) (fraction); higher = more viable cells; conditions: 1.111 µM
TEST READOUT: relative viability
Returns: the value as a bare number; no unit string appended.

COMPOUND	ASSAYED SYSTEM	relative viability
Cc1ccc(Nc2nccc(N(C)c3ccc4c(C)n(C)nc4c3)n2)cc1S(N)(=O)=O [Pazopanib]	SW684	1.16

Now consider a different compound.
Indicate the recorded relative viability value for this compound: O=S(=O)(c1cccc2cnccc12)N1CCCNCC1 [Fasudil]
0.95

* * *

// reported relative viability per item
tested on: RD; test: relative viability vs DMSO control (72 h) (fraction); higher = more viable cells; conditions: 0.00017 µM

Here are 3 compounds together with their reported answers.
COMPOUND	ASSAYED SYSTEM	TEST READOUT	MEAS VALUE
C[C@H](Nc1ncnc2nc[nH]c12)c1cc2cccc(Cl)c2c(=O)n1-c1ccccc1 [Duvelisib]	RD	relative viability	1.08
Clc1ccc(Nc2nnc(Cc3ccncc3)c3ccccc23)cc1 [Vatalanib]	RD	relative viability	1.09
Cn1cc(C2=C(c3cn(C4CCN(Cc5ccccn5)CC4)c4ccccc34)C(=O)NC2=O)c2ccccc21 [Enzastaurin]	RD	relative viability	1.08

Now consider a different compound.
Indicate the recorded relative viability value for this compound: CC1(C)CC=C(c2nc(C3CC(C)(C)OC(C)(C)C3)ccc2NC(=O)c2nc(C#N)c[nH]2)CC1 [Edicotinib]
1.12

* * *

test system: A204; test: relative viability vs DMSO control (72 h) (fraction); higher = more viable cells; details: 10 µM
TEST READOUT: relative viability

MOLECULE	relative viability
CC1(COc2ccc3c(c2)ncn3-c2ccc3cccc(N4CCC(N)CC4)c3n2)COC1	0.016
CC[C@@H]1CN(C(=O)NCC(F)(F)F)C[C@@H]1c1cnc2cnc3[nH]ccc3n12	0.832
CO[C@H]1C[C@@H]2CC[C@@H](C)[C@@](O)(O2)C(=O)C(=O)N2CCCC[C@H]2C(=O)O[C@H]([C@H](C)C[C@@H]2CC[C@@H](OCCO)[C@H](OC)C2)CC(=O)[C@H](C)/C=C(\C)[C@@H](O)[C@@H](OC)C(=O)[C@H](C)C[C@H](C)/C=C/C=C/C=C/1C	0.43

Indicate the recorded relative viability value for this molecule: COC(=O)[C@@]1(O)C[C@H]2O[C@]1(C)n1c3ccccc3c3c4c(c5c6ccccc6n2c5c31)C(=O)NC4 [K-252a]
0.0136

Indicate the recorded relative viability value for this molecule: "N#CCNC(=O)c1ccc(-c2ccnc(Nc3ccc(N4CCOCC4)cc3)n2)cc1"
0.284

Indicate the recorded relative viability value for this molecule: "O=C(Nc1nc2cccc(-c3ccc(CN4CCS(=O)(=O)CC4)cc3)n2n1)C1CC1"
0.974

Indicate the recorded relative viability value for this molecule: "Cc1cc2cc(Oc3ccnc(Nc4cccc(CS(=O)(=O)NCCN(C)C)c4)n3)ccc2[nH]1"
0.136

Indicate the recorded relative viability value for this molecule: "Cc1cccc(-c2nn3c(c2-c2ccnc4ccc(C(N)=O)cc24)CCC3)n1"
0.936

* * *

tested on: SW982; experiment: relative viability vs DMSO control (72 h) (fraction); higher = more viable cells; details: 0.00051 µM
TEST READOUT: relative viability
Returns: the value as a bare number; no unit string appended.

Indicate the recorded relative viability value for this compound: COc1cc(CCc2cc(NC(=O)c3ccc(N4CC(C)NC(C)C4)cc3)n[nH]2)cc(OC)c1 (stereo unspecified)
1

* * *

system: MES-SA; assay: relative viability vs DMSO control (72 h) (fraction); higher = more viable cells; conditions: 0.00051 µM
// reported relative viability per item
Returns: the value as a bare number; no unit string appended.

Here are 2 compounds together with their reported answers.
COMPOUND	relative viability
CNC(=O)c1nnc(NC(=O)C2CC2)cc1Nc1cccc(-c2ncn(C)n2)c1OC	0.938
O=S(=O)(c1cccc2cnccc12)N1CCCNCC1 [Fasudil]	0.955

Indicate the recorded relative viability value for this compound: COCCNc1cc(NC(=O)N2CCCc3cc(CN4CCN(C)CC4=O)c(C=O)nc32)ncc1C#N [Roblitinib]
0.892

Indicate the recorded relative viability value for this compound: Cn1ncnc1[C@H]1c2n[nH]c(=O)c3cc(F)cc(c23)N[C@@H]1c1ccc(F)cc1 [Talazoparib]
0.975

Indicate the recorded relative viability value for this compound: CCc1cnn2c(NCc3ccc[n+]([O-])c3)cc(N3CCCC[C@H]3CCO)nc12 [Dinaciclib]
1.04

Indicate the recorded relative viability value for this compound: N#CCNC(=O)c1ccc(-c2ccnc(Nc3ccc(N4CCOCC4)cc3)n2)cc1 [Momelotinib]
0.971

Indicate the recorded relative viability value for this compound: CC[C@@H]1CN(C(=O)NCC(F)(F)F)C[C@@H]1c1cnc2cnc3[nH]ccc3n12 [Upadacitinib]
0.949

Indicate the recorded relative viability value for this compound: CCN1C(=O)N(c2c(F)c(OC)cc(OC)c2F)Cc2cnc3[nH]c(CN4CCOCC4)cc3c21 [Pemigatinib]
0.939

Indicate the recorded relative viability value for this compound: Cc1ccc(Nc2nccc(N(C)c3ccc4c(C)n(C)nc4c3)n2)cc1S(N)(=O)=O [Pazopanib]
0.925

Indicate the recorded relative viability value for this compound: Cc1cc2c(F)c(Oc3ncnn4cc(OC[C@@H](C)O)c(C)c34)ccc2[nH]1 [Brivanib]
0.908

Indicate the recorded relative viability value for this compound: CNC(=O)c1ccccc1Sc1ccc2c(/C=C/c3ccccn3)n[nH]c2c1 [Axitinib]
0.968

Indicate the recorded relative viability value for this compound: C[C@]12O[C@H](C[C@]1(O)CO)n1c3ccccc3c3c4c(c5c6ccccc6n2c5c31)CNC4=O [Lestaurtinib]
0.928

Indicate the recorded relative viability value for this compound: CC(C)(O)CNc1nc(Nc2ccnc(C(F)(F)F)c2)nc(-c2cccc(C(F)(F)F)n2)n1 [Enasidenib]
0.947

Indicate the recorded relative viability value for this compound: COc1cc(Nc2ncc(F)c(Nc3ccc4c(n3)N(COP(=O)(O)O)C(=O)C(C)(C)O4)n2)cc(OC)c1OC [Fostamatinib]
0.94

The values you see were collected from the supplement of paper PMC10883282.
